Test system: HT-29
Test: NCI tumour cell line growth inhibition, 48 h
Active and inactive are the calls of the source. No stated cut-off is given here; in the data, active = GI50 up to about 1.1 µM and inactive = higher.
API: response.call in y = active, n = inactive

Look over these answered cases.
COc1ccccc1CCN1CCN(CCCc2ccccc2)CC1 ... n
COc1ccc(/C=C2\C=Cc3ccccc32)cc1OC ... n
Cc1ccccc1NC(=O)NC(Oc1ccccc1)(C(F)(F)F)C(F)(F)F ... n
COc1cc(O)c2c(=O)cc(C3(OC(C)=O)C=CC(OC4OC(CO)C(O)C(O)C4O)C=C3)oc2c1 (configuration not stated) ... n
COCn1c(C)c(C)c2c(=O)oc(=O)[nH]c21 ... n

Task: What did the test return for CC1(C=O)CC(CCc2ccccc2)NC1Cc1ccc(O)cc1 (configuration not stated) ?
Result: n

Task: What did the test return for CSCCOC(=O)C(=[N+]=[N-])c1ccc([N+](=O)[O-])cc1 ?
Result: n

Task: What did the test return for Cc1ccc(S(=O)(=O)c2ccc(N)cc2)cc1 ?
Result: n

Task: What did the test return for C[N+](C)([O-])Cc1cc(-c2ccccc2)ccc1O ?
Result: n

Task: What did the test return for COc1ccc([Se][Se]c2ccc(OC)cc2OC)c(OC)c1 ?
Result: n

###

System: SR
Experiment: NCI tumour cell line growth inhibition, 48 h
Active and inactive are the calls of the source. Rule as the data show it: active = GI50 up to about 1.1 µM and inactive = higher.
API: response.call in true (active), false (inactive)

Look over these answered cases.
CC(=O)Nc1ccc2c3c(cc(O)c2c1)N(C(=O)CCCC(=O)Nc1ccc2c4c(cc(O)c2c1)N(C(=O)OC(C)(C)C)CC4CCl)CC3CCl (stereo not given) ... true
O=[N+]([O-])c1ccc2c(/N=N/c3c(O)ccc4ccccc34)c(O)cc(S(=O)(=O)O)c2c1 ... false
C=CCN1CCC2(CC1)NC(=O)c1ccccc1O2 ... false
Cc1cc2oc3c(ccc(=O)n3C)c(=O)c2c(C)c1Cl ... false
CC(C)(C)C(=O)OCOP(=O)(OCOC(=O)C(C)(C)C)OCC1OC(n2ccc(=O)[nH]c2=O)C(N=[N+]=[N-])C1O (stereo not given) ... false
O=C1NC(c2ccc3ccccc3c2)Nc2ccccc21 (stereo not given) ... false

Task: What did the test return for CN1C(=O)CC2(C)c3cc(O)ccc3N(C)C12 (stereo not given) ?
Result: false

Task: What did the test return for CCOC1OCCCC1Br (stereo not given) ?
Result: false

###

Test system: 786-0
Assay: NCI tumour cell line growth inhibition, 48 h
The source made the active and inactive calls. No stated cut-off is given here; in the data, active = GI50 up to about 1.1 µM and inactive = higher.
API: response.call in true (1) = active, false (0) = inactive

Look over these answered cases.
CC(=O)CC1=C(OC(C)C)C2(OCCO2)C1O (stereo unspecified) ... false (0)
CCOC1CC(=O)c2c(Br)sc(Br)c21 (stereo unspecified) ... false (0)
N/N=C(/Cc1nc2ccc(C(=O)c3ccccc3)cc2nc1O)C(=O)Nc1ccc([N+](=O)[O-])cc1[N+](=O)[O-] ... false (0)
Nc1cc2[nH]cnc2c(=O)[nH]1 ... false (0)
CC(C#N)N(CCc1ccccc1)C(=O)c1ccccc1 (stereo unspecified) ... false (0)
CN(C)c1ccc(/C=C/c2ccc(S(N)(=O)=O)cc2)cc1 ... false (0)

Task: What did the test return for Cc1ccc(C2SCC(=O)N2c2ccc(-c3ccc(-n4c(-c5ccccc5)nc5ccccc5c4=O)cc3)cc2)cc1 (stereo unspecified) ?
Result: false (0)

Task: What did the test return for O=C1COc2cc3c(cc2N1)SCC(=O)N3 ?
Result: false (0)

###

I'd appreciate it if you could supply GI50 values for the items below.
Test system: TK-10
Assay: NCI tumour cell line growth inhibition, 48 h
Activity calls are given as the source filed them. Cut-off read from the data, not from the text of the source: active = GI50 up to about 1.1 µM and inactive = higher.

Study these solved cases before continuing.
CCCC/C=C/C1Cc2ccccc2CN1S(=O)(=O)c1ccc(C)cc1 (stereo not given) ... 20.9 µM (inactive)
CC(C)N(C(=O)C12C3C4C5C3C1(C(=O)N(C(C)C)C(C)C)C5(C#N)C42)C(C)C (stereo not given) ... > 100 µM (inactive)
Cc1c(C(=O)/C=C/c2ccc([N+](=O)[O-])cc2)[n+]([O-])c2ccccc2[n+]1[O-] ... > 100 µM (inactive)
NC(=S)N/N=C1/CCCC2CCCC[C@@H]12 (stereo not given in full) ... > 100 µM (inactive)
Cc1ccc(S(=O)(=O)c2ccc(N)cc2)cc1 ... > 100 µM (inactive)

# batch: return GI50 for each of the 4 compounds below
1. Cc1ccc(/C=N/NS(=O)(=O)c2ccc(/C=C3\NC(=O)NC3=O)cc2)cc1
2. COc1ccc(C(C)NNC(=O)c2cc[n+]([BH2-]C#N)cc2)cc1OC (stereo not given)
3. CCOC(=O)c1[nH]cc(C)c1-c1ccc2c(-c3ccccc3)nc3ccccc3n12
4. CC(C)(C)C(=O)Nc1cccc(-c2ccc[nH]2)n1

Result:
1. > 100 µM (inactive)
2. > 100 µM (inactive)
3. 3.21 µM (inactive)
4. > 100 µM (inactive)

Task: # input compound: Cc1nc2c(n1-c1ccc(Br)cc1)C(=O)c1ccccc1C2=O ; wanted: its GI50
Result: 34.4 µM (inactive)

###

System: 786-0
Test: NCI tumour cell line growth inhibition, 48 h
Active and inactive are the calls of the source. No stated cut-off is given here; in the data, active = GI50 up to about 1.1 µM and inactive = higher.
I'd appreciate it if you could supply GI50 values for the items below.

# batch: return GI50 for each of the 3 molecules below
1. O=C1C(=O)N(C2C3CC4CC(C3)CC2C4)C(=O)C(=O)C1c1nc2ccccc2o1 (stereo not drawn)
2. COc1ccc(C(C)NNC(=O)c2cc[n+]([BH2-]C#N)cc2)cc1OC (stereo not drawn)
3. S=C(Nc1ccc(Br)cn1)NC12CC3CC(CC(C3)C1)C2

Result:
["26.3 µM (inactive)", "> 100 µM (inactive)", "8.05 µM (inactive)"]

# batch: return GI50 for each of the 2 molecules below
1. O=c1[nH]c(=O)n(C/C=C/CBr)nc1Br
2. CCCC[C@H](CCc1ccccc1)N(C(=O)OC)N1CCC[C@H]1COC

Result:
1: 12.6 µM (inactive); 2: 21.4 µM (inactive)

# batch: return GI50 for each of the 2 molecules below
1. CC[C@H](NC(=O)OC(C)(C)C)C(=O)NCP(=O)(OCc1ccc([N+](=O)[O-])cc1)OCc1ccc([N+](=O)[O-])cc1
2. O=C(O)C12C3C4C1C1C2C3C1(Br)C41OCCO1 (stereo not drawn)

Result:
92.9 µM (inactive)
> 100 µM (inactive)

###

Test system: HOP-92
Assay: NCI tumour cell line growth inhibition, 48 h
The source made the active and inactive calls. Rule as the data show it: active = GI50 up to about 1.1 µM and inactive = higher.
API: response.call in YES (active), NO (inactive)

Look over these answered cases.
COc1cccc(C2C(C(=O)O)=C(CO)Oc3cc4c(cc32)OCO4)c1 (configuration not stated) ... NO
CCOc1ncn(-c2ccc(NC(=S)NC3OC(CO)C(O)C(O)C3O)cc2)n1 (configuration not stated) ... NO
NC(=S)N/N=C\CC(O)(C(F)(F)F)C(F)(F)F ... NO

Task: What did the test return for O=C(O)c1ccccc1/C=C1\Cc2ccc3c(c2C1=O)CCCC3 ?
Result: NO

Task: What did the test return for COc1ccc(C(C)NNC(=O)c2cc[n+]([BH2-]C#N)cc2)cc1OC (configuration not stated) ?
Result: NO

Task: What did the test return for Cc1ccc(C(=O)Nc2ccc(CP(=O)(O)O)cc2CP(=O)(O)O)cc1N ?
Result: NO

Task: What did the test return for C=CCN1CCC2(CC1)NC(=O)c1ccccc1O2 ?
Result: NO

Task: What did the test return for O=C(c1ccco1)C1CC(c2ccc3ccccc3c2O)=NN1c1ccc([N+](=O)[O-])cc1[N+](=O)[O-] (configuration not stated) ?
Result: NO

Task: What did the test return for CCOC(=O)NN(C(=O)OCC)C(=C(C1=CCCCC1)N1CCOCC1)N(NC(=O)OCC)C(=O)OCC ?
Result: NO

Task: What did the test return for CC(C)c1cccc(C(C)C)c1OS(=O)(=O)NC(=O)OC(C(F)(F)F)C(F)(F)F ?
Result: NO

###

I'd appreciate it if you could supply GI50 values for the items below.
System: SK-MEL-28
Assay: NCI tumour cell line growth inhibition, 48 h
Calls of active or inactive are those of the source. Cut-off read from the data, not from the text of the source: active = GI50 up to about 1.1 µM and inactive = higher.

COc1ccc(/C=C2\C[C@H]3[C@@H]4CCC5=CC(=O)CC[C@]5(C)[C@H]4CC[C@]3(C)C2=O)cc1OC ... 40.7 µM (inactive)
COc1cc2c(c3oc4c(O)cccc4c(=O)c13)CC(C(C)(O)CO)O2 (stereo not given) ... > 100 µM (inactive)
O=C(O)COc1cc(-c2ccccc2)nc2ccccc12 ... 73.3 µM (inactive)
[O-][S+](Nc1ccccc1)c1cccc(Cl)c1 (stereo not given) ... 68.5 µM (inactive)
O=C(CSc1nccc(=O)[nH]1)c1ccccc1 ... > 100 µM (inactive)

# batch: return GI50 for each of the 5 compounds below
1. CCOc1c(/N=N/c2ccccc2Cl)c(-c2ccccc2)nn1C(=S)S
2. COc1cc2c(c(OC)c1OC)[C@@H]1CCCCC[C@@H]1CCC2=O
3. O=S(=O)(O)c1ccc(/N=N/c2ccc3c(S(=O)(=O)O)cccc3c2O)c2ccccc12
4. c1nc2cscc2c2cscc12
5. CCOC(C[C@H](O[Si](C)(C)C(C)(C)C)[C@H]1COC(=S)S1)OCC

Result:
1. > 100 µM (inactive)
2. > 100 µM (inactive)
3. > 100 µM (inactive)
4. > 100 µM (inactive)
5. > 100 µM (inactive)
